Assay: Determination of stability against human liver microsomes
Format: in vitro ADME
Conditions: human liver microsomes 1 mg protein/mL, 2 mM NADPH, pH 7.4, 37 C; read-out: Stability against human liver microsome NADPH+ T1/2
# maps each entry to its half-life

Please report the recorded half-life for `O=C(NOCCO)c1cc(/C=N/OCc2ncc[nH]2)c(F)c(F)c1Nc1ccc(I)cc1F` . > 6 h

Item under review: O=C(NOCC(O)CO)c1cc(/C=N\OCCO)c(F)c(F)c1Nc1ccc(I)cc1F (racemic) . Reported half-life? 0.91 h

For the molecule `CS(=O)(=O)NCCO/N=C/c1cc(C(=O)NOCCO)c(Nc2ccc(I)cc2F)c(F)c1F` , what half-life is on record? > 6 h

Which half-life is listed for `O=C(CO/N=C/c1cc(C(=O)NOCCO)c(Nc2ccc(I)cc2F)c(F)c1F)NCCO` ? > 6 h

====

Assay: Determination of water solubility (equilibrium stirring method)
Assay type: physicochemical
Details: aqueous buffer, thermodynamic from solid; 50 mM phosphate buffer pH 6.5, room temperature (20 C); read-out: Water solubility (LySA PH 6.5)
This listing pairs compounds with measured log10 solubility at 2 h.
Use the decimal logarithm of solubility at 2 h (µM).

Please review the following examples before continuing.
Compound: CNC(=O)CO/N=C/c1cc(C(=O)NOCCO)c(Nc2ccc(I)cc2F)c(F)c1F [Compound 43]
log10 solubility at 2 h: 1.76

Compound: O=C(NOCCO)c1cc(/C=N/OCCN2CCC(O)CC2)c(F)c(F)c1Nc1ccc(I)cc1F [Compound 19]
log10 solubility at 2 h: 3.46

Compound: C#Cc1ccc(Nc2c(C(=O)NOCCO)cc(/C=N/OCCC(=O)NC)c(F)c2F)c(F)c1 [Compound 41]
log10 solubility at 2 h: 2.54

Compound: O=C(NOCCO)c1cc(/C=N\OCCN2CCNC2=O)c(F)c(F)c1Nc1ccc(I)cc1F [Compound 59]
log10 solubility at 2 h: 1.84

Compound: NCCO/N=C/c1cc(C(=O)NOCCO)c(Nc2ccc(I)cc2F)c(F)c1F [Compound 22]
log10 solubility at 2 h: 2.16

Suppose we examine the compound CNC(=O)CCCO/N=C\c1cc(C(=O)NOCCO)c(Nc2ccc(I)cc2F)c(F)c1F [Compound 55] ; what log10 solubility at 2 h value has been reported? 1.08

Which value of log10 solubility at 2 h has been reported for CN(C)CCO/N=C/c1cc(C(=O)NOCCO)c(Nc2ccc(I)cc2F)c(F)c1F [Compound 16] in the records? 3.38

====

Assay: Determination of water solubility (equilibrium stirring method)
Format: physicochemical
Conditions: phosphate buffer, 20 °C, aqueous buffer, thermodynamic from solid; at pH 6.06; read-out: Water solubility (LySA PH 6.5)
Readout name: solubility at 2 h (µM)
Write the value in µM as a bare number.

Return reported solubility at 2 h; argument: C#Cc1ccc(Nc2c(C(=O)NOCCO)cc(/C=N/OCC(O)CO)c(F)c2F)c(F)c1 (racemic) 1470

====

Experiment: Determination of water solubility (equilibrium stirring method)
Assay type: physicochemical
Settings: phosphate buffer, 20 °C, aqueous buffer, thermodynamic from solid; at pH 6.87; read-out: Water solubility (LySA PH 6.5)
Readout name: solubility at 2 h (µM)
The figure you give is taken to be in µM; do not add the unit.

Look up solubility at 2 h for this compound: C#Cc1ccc(Nc2c(C(=O)NOCCO)cc(/C=N/OCCCO)c(F)c2F)c(F)c1 [Compound 5] 426

====

Assay: Determination of stability against human liver microsomes
Type: in vitro ADME
Conditions: human liver microsomes 1 mg protein/mL, 2 mM NADPH, pH 7.4, 37 C; read-out: Stability against human liver microsome NADPH+ T1/2
Entries and their measured half-life follow.
The figure you give is taken to be in h; do not add the unit.

Molecule: C#Cc1ccc(Nc2c(C(=O)NOCCO)cc(/C=N/OCCO)c(F)c2F)c(F)c1 [Compound 2]
Obs value: 1.34
//
Molecule: O=C(NOCC1CC1)c1ccc(F)c(F)c1Nc1ccc(I)cc1Cl [CI-1040, reference compound]
Obs value: 0.482
//
Molecule: CS(=O)(=O)CCO/N=C/c1cc(C(=O)NOCCO)c(Nc2ccc(I)cc2F)c(F)c1F [Compound 40]
Obs value: 1.49
//
Molecule: CC(=O)N(C)CCO/N=C/c1cc(C(=O)NOCCO)c(Nc2ccc(I)cc2F)c(F)c1F [Compound 25]
Obs value: 0.813
//
Molecule: O=C(NOCCO)c1cc(/C=N/OCCN2CCNC2=O)c(F)c(F)c1Nc1ccc(I)cc1F [Compound 27]
Obs value: 2.41
//
Molecule: O=C(NOCCO)c1cc(/C=N/O)c(F)c(F)c1Nc1ccc(I)cc1F [Compound 3]
Obs value: 1.55
//
Molecule: C#Cc1ccc(Nc2c(C(=O)NOCCO)cc(/C=N/OCC(O)CO)c(F)c2F)c(F)c1 (racemic) [Compound 8]
Obs value: 1.24
//
Molecule: C#Cc1ccc(Nc2c(C(=O)NOCCO)cc(/C=N\OCCO)c(F)c2F)c(F)c1 [Compound 48]
Obs value: 0.603

With those in mind, consider the next molecule.
Any idea what its half-life is? The molecule is CN(C)C(=O)CCO/N=C/c1cc(C(=O)NOCCO)c(Nc2ccc(I)cc2F)c(F)c1F [Compound 42] 1.74

====

Experiment: Determination of water solubility (equilibrium stirring method)
Format: physicochemical
Settings: 50 mM phosphate buffer pH 6.5, room temperature (20 C)
Readout name: Water solubility (LySA PH 6.5) (µM)
Only the number, expressed in µM, is required.

Example compounds with recorded Water solubility (LySA PH 6.5):
Smiles code: C#Cc1ccc(Nc2c(C(=O)NOCCO)cc(/C=N/OCCO)c(F)c2F)c(F)c1
Water solubility (LySA PH 6.5) [µM]: 415

Smiles code: CC(C)(O)CO/N=C/c1cc(C(=O)NOCCO)c(Nc2ccc(I)cc2F)c(F)c1F
Water solubility (LySA PH 6.5) [µM]: 15

Smiles code: O=C(NOCCO)c1cc(/C=N\OCCO)c(F)c(F)c1Nc1ccc(I)cc1F
Water solubility (LySA PH 6.5) [µM]: 75

Using the record for `CC(=O)NCCO/N=C/c1cc(C(=O)NOCCO)c(Nc2ccc(I)cc2F)c(F)c1F` , report its Water solubility (LySA PH 6.5). 16

For `O=C(NOCCO)c1cc(/C=N/OCCO)c(F)c(F)c1Nc1ccc(I)cc1F` , what is its reported Water solubility (LySA PH 6.5)? 8.3

====

Target: MEK (Homo sapiens)
Sequence (Q02750 whole entry): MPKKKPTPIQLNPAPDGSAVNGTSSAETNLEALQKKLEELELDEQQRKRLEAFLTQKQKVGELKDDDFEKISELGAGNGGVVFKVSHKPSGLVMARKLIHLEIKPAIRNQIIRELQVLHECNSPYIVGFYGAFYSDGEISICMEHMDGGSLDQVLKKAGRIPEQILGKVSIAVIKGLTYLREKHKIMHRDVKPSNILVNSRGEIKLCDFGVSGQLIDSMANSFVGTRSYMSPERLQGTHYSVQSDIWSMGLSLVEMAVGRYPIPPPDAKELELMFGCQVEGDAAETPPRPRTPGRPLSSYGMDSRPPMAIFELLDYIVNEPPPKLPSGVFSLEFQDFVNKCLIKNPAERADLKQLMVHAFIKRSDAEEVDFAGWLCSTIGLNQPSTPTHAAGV
Assay: Determination of MEK inhibitory activities (Raf-1 kinase cascade assay, MBP phosphorylation, 33P-ATP)
Readout name: pIC50
The meaning of pIC50 here: minus log10 of the concentration in molar units.

A selection of reference data follows.
Molecule: CS(=O)(=O)CCO/N=C\c1cc(C(=O)NOCCO)c(Nc2ccc(I)cc2F)c(F)c1F
Readout name: pIC50
Obs value: 7.77
//
Molecule: CN(C)CCO/N=C/c1cc(C(=O)NOCCO)c(Nc2ccc(I)cc2F)c(F)c1F
Readout name: pIC50
Obs value: 6.61
//
Molecule: CNC(=O)CCO/N=C/c1cc(C(=O)NOCCO)c(Nc2ccc(I)cc2F)c(F)c1F
Readout name: pIC50
Obs value: 8.01
//
Molecule: CNC(=O)CCCO/N=C/c1cc(C(=O)NOCCO)c(Nc2ccc(I)cc2F)c(F)c1F
Readout name: pIC50
Obs value: 7.60
//
Molecule: CNC(=O)CCCO/N=C\c1cc(C(=O)NOCCO)c(Nc2ccc(I)cc2F)c(F)c1F
Readout name: pIC50
Obs value: 7.43

Entry under review: `CN(C)C(=O)CCO/N=C/c1cc(C(=O)NOCCO)c(Nc2ccc(I)cc2F)c(F)c1F` . Reported pIC50? 7.25

# query: pIC50 of entry `O=C(NOCCO)c1cc(/C=N\OCCN2CCNC2=O)c(F)c(F)c1Nc1ccc(I)cc1F` 7.30

====

Experiment: Determination of stability against mouse liver microsomes
Type: in vitro ADME
Details: mouse liver microsomes 1 mg protein/mL, 2 mM NADPH, pH 7.4, 37 C; read-out: Stability against mouse liver microsome NADPH+ T1/2
Readout name: half-life

Compound: CNC(=O)CO/N=C/c1cc(C(=O)NOCCO)c(Nc2ccc(I)cc2F)c(F)c1F [Compound 43]
Obs value: > 6 h

Compound: O=C(NOCCO)c1cc(/C=N/OCCCO)c(F)c(F)c1Nc1ccc(I)cc1F [Compound 4]
Obs value: > 6 h

Compound: O=C(NOCCO)c1cc(/C=N/OCCN2CCC(O)CC2)c(F)c(F)c1Nc1ccc(I)cc1F [Compound 19]
Obs value: > 6 h

Compound: O=C(NOCC(O)CO)c1cc(/C=N\OCCO)c(F)c(F)c1Nc1ccc(I)cc1F (racemic) [Compound 58]
Obs value: 0.79 h

Compound: O=C(NOCCO)c1cc(/C=N/OCCO)c(F)c(F)c1Nc1ccc(I)cc1F [Compound 1]
Obs value: 3.94 h

Compound: O=C(CO/N=C/c1cc(C(=O)NOCCO)c(Nc2ccc(I)cc2F)c(F)c1F)NCCO [Compound 45]
Obs value: 2.15 h

Compound: O=C(NOCCO)c1cc(/C=N/O)c(F)c(F)c1Nc1ccc(I)cc1F [Compound 3]
Obs value: 0.97 h

Compound: NCCO/N=C/c1cc(C(=O)NOCCO)c(Nc2ccc(I)cc2F)c(F)c1F [Compound 22]
Obs value: > 6 h

Compound: O=C(NOCC1CC1)c1ccc(F)c(F)c1Nc1ccc(I)cc1Cl [CI-1040, reference compound]
Obs value: 0.18 h

Compound: CNC(=O)CCCO/N=C/c1cc(C(=O)NOCCO)c(Nc2ccc(I)cc2F)c(F)c1F [Compound 44]
Obs value: > 6 h

May I ask what half-life has been recorded for O=C(NOCCO)c1cc(/C=N/OCCN2CCCC2)c(F)c(F)c1Nc1ccc(I)cc1F [Compound 21] ? > 6 h

So what's the measured half-life for this one? O=C(NOCCO)c1cc(/C=N/OCCN2CCOCC2)c(F)c(F)c1Nc1ccc(I)cc1F [Compound 18] > 6 h

# get_value(readout='half-life', item= O=C(NOCCO)c1cc(/C=N/OCCN2CCC[C@H]2CO)c(F)c(F)c1Nc1ccc(I)cc1F [Compound 20] ) > 6 h
